test system: strains of Parvimonas micra; test: MIC against anaerobes, agar dilution (CLSI), clinical isolates; assay type: cell-based; settings: Parvimonas micra strain 8
measurement_name: MIC

Request: Respond only with MIC recorded for CN[C@H](CC(C)C)C(=O)N[C@H]1C(=O)N[C@@H](CC(N)=O)C(=O)N[C@H]2C(=O)N[C@H]3C(=O)N[C@H](C(=O)N[C@H](C(=O)O)c4cc(O)cc(O)c4-c4cc3ccc4O)[C@H](O)c3ccc(c(Cl)c3)Oc3cc2cc(c3O[C@@H]2O[C@H](CO)[C@@H](O)[C@H](O)[C@H]2O[C@H]2C[C@](C)(N)[C@H](O)[C@H](C)O2)Oc2ccc(cc2Cl)[C@H]1O [VAN, vancomycin, reference compound]
Result: < 1 µg/mL

Request: Respond only with MIC recorded for Cc1ncc([N+](=O)[O-])n1CCO [MTZ, metronidazole, reference compound]
Result: < 1 µg/mL

Request: Respond only with MIC recorded for "Cc1ccc2ncc(=O)n(CCN[C@H]3CC[C@H]4[C@@H](C3)OC(=O)N4c3ccc4c(n3)NC(=O)CO4)c2c1"
Result: 16 to 64 µg/mL

Request: Respond only with MIC recorded for "COc1ccc2ncc(=O)n(CCN[C@@H]3CC[C@@H]4[C@@H](C3)OC(=O)N4c3ccc4c(n3)NC(=O)CO4)c2c1"
Result: < 1 µg/mL

Recorded values, source patent US10487093B2.
